Tested on: Heliothis virescens (tobacco budworm)
Assay: Heliothis virescens eggs in 24-well microtiter plate on artificial diet, larval mortality
Type: in vivo
Conditions: Heliothis virescens, 96 h, single compound at 200 ppm AI; read-out: AVERAGE DEAD IN %
Parameter: pest or weed control at 200 ppm
Remember to put the unit after the number in your answer.

Given `O=[N+]([O-])NC1=NCCN1Cc1ccc(Cl)nc1` , state its recorded pest or weed control at 200 ppm.
100%

Next compound: `CCOC(=O)OC1=C(c2cc(C)ccc2C)C(=O)N[C@]12CC[C@@H](OC)CC2`
0%

Next compound: `CCOP(=S)(OCC)Oc1nc(Cl)c(Cl)cc1Cl`
100%

Next compound: `CN1COCN(Cc2cnc(Cl)s2)/C1=N\[N+](=O)[O-]`
65%

Next compound: `CC1=NNC(=O)N(/N=C/c2cccnc2)C1`
0%
